target: Protein kinase C delta type (Homo sapiens, UniProt Q05655); test: Inhibition of Protein kinase C delta (PKCdelta)
Sequence (Q05655 whole entry): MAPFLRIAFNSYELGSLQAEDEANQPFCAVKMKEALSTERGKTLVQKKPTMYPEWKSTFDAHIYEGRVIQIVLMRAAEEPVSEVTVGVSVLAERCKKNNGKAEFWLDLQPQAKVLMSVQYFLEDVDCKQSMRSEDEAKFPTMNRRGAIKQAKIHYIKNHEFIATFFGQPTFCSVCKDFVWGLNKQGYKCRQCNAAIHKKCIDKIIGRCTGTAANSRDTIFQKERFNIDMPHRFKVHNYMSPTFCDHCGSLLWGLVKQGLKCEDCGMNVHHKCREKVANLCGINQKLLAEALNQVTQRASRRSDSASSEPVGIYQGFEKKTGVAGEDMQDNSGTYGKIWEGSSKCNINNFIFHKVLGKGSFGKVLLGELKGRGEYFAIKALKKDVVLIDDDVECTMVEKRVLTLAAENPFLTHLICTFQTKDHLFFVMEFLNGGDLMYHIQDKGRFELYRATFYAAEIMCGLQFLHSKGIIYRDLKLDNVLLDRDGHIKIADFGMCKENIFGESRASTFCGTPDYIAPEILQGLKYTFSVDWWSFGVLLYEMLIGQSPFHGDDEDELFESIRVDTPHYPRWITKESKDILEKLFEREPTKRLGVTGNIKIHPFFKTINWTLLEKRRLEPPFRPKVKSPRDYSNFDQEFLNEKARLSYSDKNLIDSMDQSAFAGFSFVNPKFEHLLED
VALUE_TYPE: pIC50
Please treat pIC50 as minus the base-10 logarithm of the molar concentration.

**Q:** // lookup pIC50 for CC(CN(C)C)Oc1ccc(Cl)cc1NC(=O)Nc1cnc(C#N)cn1 (configuration not stated)
**A:** 4.30

----------
target: MAP/microtubule affinity-regulating kinase 3 (Homo sapiens, UniProt P27448); assay: Inhibition of MAP/microtubule affinity-regulating kinase 3 (cTak1)
Sequence (P27448 whole entry): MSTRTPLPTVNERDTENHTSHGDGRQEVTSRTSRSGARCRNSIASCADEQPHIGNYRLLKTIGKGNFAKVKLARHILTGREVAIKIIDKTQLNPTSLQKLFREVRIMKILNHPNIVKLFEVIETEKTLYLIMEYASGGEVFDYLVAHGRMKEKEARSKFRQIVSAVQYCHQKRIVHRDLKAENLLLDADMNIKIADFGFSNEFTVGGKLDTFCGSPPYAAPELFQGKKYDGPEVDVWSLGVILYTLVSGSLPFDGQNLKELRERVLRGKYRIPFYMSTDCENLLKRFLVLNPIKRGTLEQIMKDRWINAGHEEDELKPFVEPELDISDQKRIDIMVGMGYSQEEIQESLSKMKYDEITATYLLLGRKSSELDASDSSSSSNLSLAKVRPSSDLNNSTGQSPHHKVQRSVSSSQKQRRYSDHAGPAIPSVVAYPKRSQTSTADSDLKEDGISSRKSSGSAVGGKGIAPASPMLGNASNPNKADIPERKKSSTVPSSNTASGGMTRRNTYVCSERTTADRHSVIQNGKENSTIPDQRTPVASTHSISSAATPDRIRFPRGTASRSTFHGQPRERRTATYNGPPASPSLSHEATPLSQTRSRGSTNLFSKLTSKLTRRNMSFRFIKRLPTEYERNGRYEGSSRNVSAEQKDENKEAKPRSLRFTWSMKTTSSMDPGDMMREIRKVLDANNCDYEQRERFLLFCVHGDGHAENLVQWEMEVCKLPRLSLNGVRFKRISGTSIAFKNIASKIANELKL
pIC50: −log10 of the molar value.
VALUE_TYPE: pIC50

**Q:** Requested field: pIC50. Item: CC1(COc2ccc(Cl)cc2NC(=O)Nc2cnc(C#N)cn2)COC1
**A:** < 5.00
